experiment: gradient 5% acetonitrile 3 min, to 50% in 2 min, to 85% in 15 min, held 3 min, 100 µL/min; details: column: Zorbax Extend-C18 2.1 x 50 mm; eluents: water / acetonitrile, 0.1% formic acid
Below, each entry is listed with its recorded RP-LC retention time.
Your answer should be a plain number; it is taken to be in s.

Worked examples, 3 compounds total:
>>> numeric_result("Cc1ccc(Nc2c(-c3ccccc3O)nc3ncccn23)c(C)c1")
744
>>> numeric_result("CCn1nccc1C(=O)N1CC(Oc2ccc(-c3nc(C)no3)cc2)C1")
800
>>> numeric_result("C=CCNC(=O)c1snc(C(=O)NC(C)C)c1N")
749

RP-LC retention time reading for C=CCSc1nc2ccccc2c2nc(C)nn12 : 982

Sample COc1ccc(NC(=O)N2C[C@@H](F)C[C@H]2C(=O)N2CCc3ccccc3C2)cc1OC ; RP-LC retention time observed: 732

In plain terms, COc1cccc(NC(=O)N2CC(c3nc(Cc4ccccc4)no3)C2)c1OC has a documented RP-LC retention time of 831

In plain terms, c1cc(-c2nc(-c3ccc4c(c3)ncn4CCN3CCCCC3)no2)ccn1 has a documented RP-LC retention time of 581

// recorded RP-LC retention time for Cc1ccc(NC(=O)C(=O)NCC(c2ccc3c(c2)OCO3)N2CCOCC2)c(C)c1 (stereo not given) : 693

Recorded result, CCn1cc(-c2ccc(C)cc2)cc1C(=O)N1CCOCC1 , RP-LC retention time: 932

Record summary for Brc1ccc(-c2ccc(CNCC3CCCO3)o2)cc1 (stereo not given) : reported RP-LC retention time = 703

Measured RP-LC retention time of Cc1cccc(C(=O)NCCc2cn(CC(C)C)c3ncccc23)c1 : 827

compound O=C(Nc1cccc(Cl)c1F)c1cnc(-c2ccc(F)cc2)nc1-c1ccncc1 , RP-LC retention time observed: 972

The recorded RP-LC retention time for entry CSc1ccc(-c2nc3cc(C)ccn3c2Nc2ccc(C)cc2)cc1 equals 808

In plain terms, CC(C)(C)c1csc(-c2csc(S(=O)(=O)NCC3CCCCC3)c2)n1 has a documented RP-LC retention time of 1410

For CC(C(=O)NCCCN(C)Cc1ccccc1)n1c(=O)c(C(F)(F)F)nc2ccccc21 (stereo not given) the compound record lists RP-LC retention time as 725

The reported value for COc1ccc(C2=C(C)C(N3CCC(C(=O)NC4CCCC4)CC3)=NS2(=O)=O)cc1 in terms of RP-LC retention time is 780

// RP-LC retention time value for COc1cccc(-c2noc(N3CCCC3)n2)c1 : 898

O=C(Cc1ccc(F)cc1)N1CCCC1c1nc(-c2ccc(F)cc2)no1 (stereo not given) yielded RP-LC retention time of 1010

Noted for CC1=C(c2ccc(F)cc2)S(=O)(=O)N=C1N1CCC(C(=O)NC2CCCC2)CC1 : its RP-LC retention time reads 798

Looking up COc1cc(OC)c(NC(=O)Cn2nc3c(cc2=O)CCCC3)cc1Cl , I see its RP-LC retention time listed as 719

Form: compound = CCc1noc(NC(C)=O)c1-c1ccc(OC)c(S(=O)(=O)NC2CCCC2)c1 ; RP-LC retention time = 801

----------
assay: gradient 5% acetonitrile 3 min, to 50% in 2 min, to 85% in 15 min, held 3 min, 100 µL/min; conditions: column: Zorbax Extend-C18 2.1 x 50 mm; eluents: water / acetonitrile, 0.1% formic acid
Assign labels as follows, please: Fulfilled for RP-LC retention time below 700 s; Not fulfilled for RP-LC retention time equal to or exceeding 700 s.

>>> assigned_label("O=C(NCc1ccccc1)c1ccc(CN2CCN(Cc3ccc(F)cc3)C(=O)C2=O)cc1")
"Not fulfilled"

Proceed to the following item.
[ask] Say whether its RP-LC retention time is strictly beneath 700 s. Entry: CSc1ccccc1NC(=O)C(=O)NCC1(CO)CC1
[reply] Not fulfilled
